Data origin: the NIST ThermoML archive (doi:10.1016/j.jct.2014.06.006)

Measured activity coefficient, listed per entry.
# ASSAY PROCEDURE: activity coefficient (dimensionless); of the first substance listed, at infinite dilution; xn = mol fraction of the nth substance listed
# DETAILS: 298 K; 238 kPa; Liquid; Chromatography; x1 = 0
TEST READOUT: activity coefficient

> print(dat)
                                   molecule          test.readout  number
1     CC1CCCC1 [methylcyclopentane] + COCCO  activity coefficient      11
2         CCc1ccccc1 [ethylbenzene] + COCCO  activity coefficient     4.9
3  Cc1ccccc1C [1,2-dimethylbenzene] + COCCO  activity coefficient       5
4           C1=CCCCC1 [cyclohexene] + COCCO  activity coefficient     7.4
5               CCCCCCCCCC [decane] + COCCO  activity coefficient    56.8
6  Cc1ccc(C)cc1 [1,4-dimethylbenzene] + COCCO  activity coefficient     5.2

###

# ASSAY PROCEDURE: activity coefficient (dimensionless); of the first substance listed, at infinite dilution; xn = mol fraction of the nth substance listed
# DETAILS: 298 K; 238 kPa; Liquid; Chromatography; x1 = 0
Quick reference: activity coefficient of the listed items.
TEST READOUT: activity coefficient

> print(dat)
                                   compound          test.readout  number
1                CCCCCCCCC [nonane] + COCCO  activity coefficient    41.4
2  Cc1ccc(C)cc1 [1,4-dimethylbenzene] + CC(O)CO  activity coefficient    26.7
3     CC1CCCCC1 [methylcyclohexane] + COCCO  activity coefficient    14.7
4       Fc1ccccc1 [fluorobenzene] + CC(O)CO  activity coefficient     8.5
5            CCCCCCCCCCC [undecane] + COCCO  activity coefficient    94.6
6      c1ccc2ccccc2c1 [naphthalene] + COCCO  activity coefficient      11

###

# ASSAY PROCEDURE: activity coefficient (dimensionless); of the first substance listed, at infinite dilution; xn = mol fraction of the nth substance listed
# DETAILS: 298 K; 238 kPa; Liquid; Chromatography; x1 = 0
Decide using activity coefficient: a value greater than or equal to 10 is TRUE, a smaller one is FALSE.

> print(dat)
                             compound  label
1  C=CCCCCC=C [1,7-octadiene] + COCCO   TRUE
2    C1CCCCCCC1 [cyclooctane] + COCCO   TRUE
3         CCCCCCCC [octane] + CC(O)CO   TRUE
4   Brc1ccccc1 [bromobenzene] + COCCO  FALSE
5        c1ccccc1 [benzene] + CC(O)CO   TRUE
6      C1CCCCC1 [cyclohexane] + COCCO   TRUE
7   Fc1ccccc1 [fluorobenzene] + COCCO  FALSE

###

# ASSAY PROCEDURE: activity coefficient (dimensionless); of the first substance listed, at infinite dilution; xn = mol fraction of the nth substance listed
# DETAILS: 298 K; 238 kPa; Liquid; Chromatography; x1 = 0
Label not fulfilled if activity coefficient falls below 30; label fulfilled in every other case.

> print(dat)
                                   molecule          label
1      Clc1ccccc1 [chlorobenzene] + CC(O)CO  not fulfilled
2               CCCCCCC [heptane] + CC(O)CO      fulfilled
3                 CCCCCC [hexane] + CC(O)CO      fulfilled
4                c1ccccc1 [benzene] + COCCO  not fulfilled
5  Cc1ccccc1C [1,2-dimethylbenzene] + CC(O)CO  not fulfilled
6               Cc1ccccc1 [toluene] + COCCO  not fulfilled
7       CCc1ccccc1 [ethylbenzene] + CC(O)CO  not fulfilled
